- targetEntity: Squalene monooxygenase (Sus scrofa)
- testMethodNotes: Inhibition of pig liver squalene epoxidase
Task for the reader: assign each of the following compounds its reported IC50.
The reply should be a number in µM, with the unit left off.

Quote IC50 reported for "CC(C)=CCC/C(C)=C/CC/C(C)=C/CC/C=C(\C)CCCO" please. 100

Quick one: give measured IC50 for "CC(C)=CCC/C(C)=C/CC/C(C)=C/CC/C=C(\C)CC/C=C(\C)CCCO" 4

Please indicate IC50 recorded for "CC(C)=CCC/C(C)=C/CC/C(C)=C/CC/C=C(\C)CC/C=C(\C)CCCCO" 4
